# Tested on: M14
# measurement-description: SRB 48 h growth assay, Melanoma M14
# Type: cell-based, human
# setup-conditions: Homo sapiens, read-out: Growth Inhibition GI50
Quick reference: log10 GI50 of the listed items.
Short version: log10 scale, GI50, nM.

Examples with their reported log10 GI50 follow.
>  <compound>
C#Cc1ccc(-n2c(/C=C/c3cc(OC)c(OC)c(OC)c3)nc3ncccc3c2=O)cc1 [4q]

>  <log10 GI50>
3.69

$$$$
>  <compound>
C#Cc1ccc(-n2c(/C=C/c3ccc4ccccc4n3)nc3ncccc3c2=O)cc1 [4t]

>  <log10 GI50>
2.41

$$$$
>  <compound>
C#Cc1ccc(-n2c(/C=C/c3ccc(C(F)(F)F)cc3)nc3ncccc3c2=O)cc1 [4c]

>  <log10 GI50>
3.32

$$$$
>  <compound>
C#Cc1ccc(-n2c(/C=C/c3ccc(O)cc3)nc3ncccc3c2=O)cc1 [4b]

>  <log10 GI50>
3.43

$$$$
>  <compound>
C#Cc1ccc(-n2c(/C=C/c3ccc4ccccc4c3)nc3ncccc3c2=O)cc1 [4s]

>  <log10 GI50>
3.32

$$$$

[Q] So what does the record say about log10 GI50 for C#Cc1ccc(-n2c(/C=C/c3ccc(Cl)c(F)c3)nc3ncccc3c2=O)cc1 [4g] ?
[A] 2.48

---

# System: MDA-MB-231/ATCC
# measurement-description: SRB 48 h growth assay, Breast MDA-MB-231/ATCC
# Format: cell-based, human
parameter: Log10 TGI50
The reply should be a number, written without any unit.

>  <record-smiles>
C#Cc1ccc(-n2c(/C=C/c3ccc4ccccc4n3)nc3ncccc3c2=O)cc1

>  <parameter>
Log10 TGI50

>  <endpoint-value>
−5.93

$$$$

Continue with the compound presented below.
[Q] So what does the record say about Log10 TGI50 for `C#Cc1ccc(-n2c(/C=C/c3ccc(C(F)(F)F)cc3)nc3ncccc3c2=O)cc1` ?
[A] −5.26

---

# System: RXF393
# measurement-description: SRB 48 h growth assay, Renal RXF393
# Assay type: cell-based, human
# setup-conditions: Homo sapiens, RXF 393, read-out: Log10 GI50 (converted)
parameter: GI50 (nM)
Please give a number only; it is taken to be in nM.

>  <record-smiles>
C#Cc1ccc(-n2c(/C=C/c3cc(OC)c(OC)c(OC)c3)nc3ncccc3c2=O)cc1

>  <GI50, nM>
7080

$$$$

[Q] So what does the record say about GI50 for `C#Cc1ccc(-n2c(/C=C/c3ccc(Cl)c(F)c3)nc3ncccc3c2=O)cc1` ?
[A] 282

[Q] So what does the record say about GI50 for `C#Cc1ccc(-n2c(/C=C/c3ccc(O)cc3)nc3ncccc3c2=O)cc1` ?
[A] 1480

[Q] So what does the record say about GI50 for `C#Cc1ccc(-n2c(/C=C/c3ccc4ccccc4c3)nc3ncccc3c2=O)cc1` ?
[A] 1780

[Q] So what does the record say about GI50 for `C#Cc1ccc(-n2c(/C=C/c3ccc4ccccc4n3)nc3ncccc3c2=O)cc1` ?
[A] 257

[Q] So what does the record say about GI50 for `C#Cc1ccc(-n2c(/C=C/c3ccc(C(F)(F)F)cc3)nc3ncccc3c2=O)cc1` ?
[A] 1780

---

# Test system: HOP-92
# measurement-description: SRB 48 h growth assay, Non-small Cell Lung HOP-92
# Assay type: cell-based, human
# setup-conditions: Homo sapiens, HOP-92, Non-small Cell Lung, read-out: Log10 LC50 (converted)
Quick reference: CC50 of the listed items.

Examples with their reported CC50 follow.
>  <record-smiles>
C#Cc1ccc(-n2c(/C=C/c3ccc4ccccc4n3)nc3ncccc3c2=O)cc1

>  <endpoint-value>
> 100 µM

$$$$
>  <record-smiles>
C#Cc1ccc(-n2c(/C=C/c3cc(OC)c(OC)c(OC)c3)nc3ncccc3c2=O)cc1

>  <endpoint-value>
> 100 µM

$$$$
>  <record-smiles>
C#Cc1ccc(-n2c(/C=C/c3ccc4ccccc4c3)nc3ncccc3c2=O)cc1

>  <endpoint-value>
6.92 µM

$$$$
>  <record-smiles>
C#Cc1ccc(-n2c(/C=C/c3ccc(O)cc3)nc3ncccc3c2=O)cc1

>  <endpoint-value>
> 100 µM

$$$$

Continue with the molecule presented below.
[Q] API: value(readout= CC50, system= HOP-92, query= `C#Cc1ccc(-n2c(/C=C/c3ccc(C(F)(F)F)cc3)nc3ncccc3c2=O)cc1` )
[A] 8.91 µM

// provenance: patent US9783537B2
